system: Candida albicans; test: microbe, parasite or virus in culture; settings: ATCC 90028, ASSAY_TEST Inhibition of Fungal Growth, detection method Absorption (OD530), plate type 384well, NBS, CORNING #3640
Description: Antifungal activity against Candida albicans ATCC 90028 (CO-ADD:FG_001); MIC in YNB media using NBS plates, by OD630
Record form. Attribute: MIC. Fill in for each entry.

Use the examples below as a reference point.
> print(dat)
                                   compound  property.name  experimental.result
1  CN(C)CCOc1ccc2c(c1)C(=O)/C(=C\c1ncc([N+](=O)[O-])n1C)C2            MIC              > 10 µM
2  CN1CCN(c2ccc([N+](=O)[O-])c3no[n+]([O-])c23)CC1            MIC              > 10 µM
3  Nc1ncnc2c1ncn2C1OC(COS(N)(=O)=O)C(O)C1O (configuration not stated)            MIC              > 10 µM
4  CCN1CCCC(Sc2nc3c(=S)n(C)c(=O)n(C)c3[nH]2)C1 (configuration not stated)            MIC              > 10 µM
5  O=[N+]([O-])c1ccc(Sc2cccc[n+]2[O-])c2nonc12            MIC              1.25 µM

Below is a list of compounds. For each, state its recorded MIC.
1. O=C1C(Cl)=C(NCCc2ccccc2)C(=O)c2ccccc21
2. O=C(Nc1ccc(Nc2ccncc2)cc1)c1ccc(Nc2ccnc3ccc([N+](=O)[O-])cc23)cc1[N+](=O)[O-]

Ans:
0.625 µM
> 10 µM

----------
Record form. Attribute: MIC. Fill in for each entry.
test system: Cryptococcus neoformans

Use the examples below as a reference point.
> print(dat)
                                   compound                   target  experimental.result
1                  CSc1nc(C)c(Br)c(N2CC2)n1  Cryptococcus neoformans              > 10 µM
2  O=C(c1cccnc1)C1Cc2ccccc2C1=O (stereo unspecified)  Cryptococcus neoformans              > 10 µM
3  O=Nc1c(-c2cccc([N+](=O)[O-])c2)nc2ncccn12  Cryptococcus neoformans               2.5 µM
4  Cn1ccc(=Nc2ccc(NC(=O)c3ccc(/N=c4\ccn(C)c5ccc([N+](=O)[O-])cc45)cc3)cc2)cc1  Cryptococcus neoformans                 5 µM
5        O=[N+]([O-])c1oc2ccc3ccccc3c2c1CCO  Cryptococcus neoformans              > 10 µM

Below is a list of compounds. For each, state its recorded MIC.
1. C=Cc1cc(OC)c2c(c1)c(=O)oc1c2cc(OC)c2c(O)ccc(C3OC(C)C(O)C(C)(O)C3O)c21 (stereo unspecified)
2. O=[N+]([O-])c1ccc(/C=[N+](\[O-])CCO)o1

Ans:
["> 10 µM", "> 10 µM"]

----------
Record form. Attribute: CC50. Fill in for each entry.
tested on: HEK293; test: cells; type: functional; conditions: Homo sapiens, ATCC CRL1573, HEK293; ASSAY_TEST Inhibition of Cell Viability; detection method Resazurin; Fluorescence (ex560/em590); MEDIA DMEM with 10% FBS; plate type 384well; TC; CORNING #3712; time 18 hr

Compound	Experimental Result
CC(C)=NNc1ncnc2[nH]cnc12	> 10 µM

Below is a list of compounds. For each, state its recorded CC50.
1. C#CC(c1ccccc1)(c1ccccc1)n1ccnc1
2. Sc1ncnc2c1ncn2C1CCCO1 (stereo unspecified)
3. Cc1ccccc1NC(=O)NCCN1CC1

Ans:
> 10 µM
> 10 µM
> 10 µM

----------
system: Candida albicans; assay: microbe, parasite or virus in culture; conditions: ATCC 90028, ASSAY_TEST Inhibition of Fungal Growth, detection method Absorption (OD530), plate type 384well, NBS, CORNING #3640
Property Name: MIC

> print(dat)
                                   compound  experimental.result
1  O=C(Nc1ccc(C2=NCCN2)cc1)c1ccc(Cl)c(C(=O)Nc2ccc(C3=NCCN3)cc2)c1              > 10 µM
2       O=C1N=C(Nc2nc3ccccc3[nH]2)c2ccccc21                10 µM
3        COc1ccccc1/C=C/C(=O)/C=C/c1ccccc1O              > 10 µM

Below is a list of compounds. For each, state its recorded MIC.
1. Nc1nc(N)c2c(ccc3[nH]ccc32)n1
2. CCC(C)c1cnc(CC(C)C)c(=O)n1O (stereo not drawn)
3. O=C1C=CC(=O)N1c1ccc(I)cc1Cl
4. C=Cc1cc(OC)c2c(c1)c(=O)oc1c2cc(OC)c2c(O)ccc(C3OC(C)C(O)C(C)(O)C3O)c21 (stereo not drawn)
5. NC(=S)c1cn(C2OC(CO)C(O)C2O)c2ncnc(N)c12 (stereo not drawn)

Ans:
1. > 10 µM
2. > 10 µM
3. > 10 µM
4. > 10 µM
5. 10 µM

----------
Record form. Attribute: MIC. Fill in for each entry.
test system: Candida albicans; assay: microbe, parasite or virus in culture; conditions: ATCC 90028, ASSAY_TEST Inhibition of Fungal Growth, detection method Absorption (OD530), plate type 384well, NBS, CORNING #3640

Below is a list of compounds. For each, state its recorded MIC.
1. C=C(C)C(=O)Oc1ccc(/N=N/c2ccc(C)cc2)ccc1=O
2. COC1CC2\C=C(C)/C=C/C=C/C(=O)NC(c3ccccc3)C/C=C/CCC(O)CC(=O)C2=C1O (stereo unspecified)
3. O=[N+]([O-])c1cc([N+](=O)[O-])c2cccnc2c1O
4. Sc1nc2ccc(Cl)cc2s1

Ans:
["10 µM", "1.25 µM", "10 µM", "10 µM"]

Below is a list of compounds. For each, state its recorded MIC.
1. CC(C)c1ccc2c(c1)CCC1C(C)(CN)CCCC21C (stereo unspecified)
2. Cc1cnc(SCc2ccc(Cl)cc2Cl)nc1O
3. COC(=O)N1C2CCCCC2=NN(c2ccccc2)N1C(=O)OC (stereo unspecified)

Ans:
1. > 10 µM
2. > 10 µM
3. > 10 µM

Below is a list of compounds. For each, state its recorded MIC.
1. O=C(Nc1cccc(-c2nc3ccccc3[nH]2)c1)c1ccc(C(=O)Nc2cccc(-c3nc4ccccc4[nH]3)c2)cc1
2. Nc1ccc(S(=O)(=O)Nc2cnc3ccccc3n2)cc1 [SULFAQUINOXALINE]
3. Sc1nc2cc(-c3ccccc3)ccc2o1
4. COC1CC(C)C(OC)c2cc(O)cc(c2O)NC(=O)/C(C)=C/C=C\C(C)C(OC(N)=O)/C(C)=C\C(C)C1OC (stereo unspecified)

Ans:
1. > 10 µM
2. > 10 µM
3. > 10 µM
4. > 10 µM

Below is a list of compounds. For each, state its recorded MIC.
1. Cc1c(-c2ccccc2)n(O)[n+]([O-])c1-c1ccccc1
2. O=C(Nc1ccc(Nc2ccncc2)cc1)c1ccc(Nc2ccnc3ccc([N+](=O)[O-])cc23)cc1
3. C1C2CC3C1C3/C2=N\N=C1/C2CC3C(C2)C13
4. Cn1cnc([N+](=O)[O-])c1S(=O)(=O)Oc1cccc2ccccc12
5. O=[N+]([O-])c1cnc(Sc2ccncn2)s1
6. Cn1c(=S)c2nc(SCCN3CCCC3)[nH]c2n(C)c1=O
7. O=C(Nc1ccc(C2=NCCN2)cc1)c1ccc(C(=O)Nc2ccc(C3=NCCN3)cc2)c(Cl)c1
8. COC12C(COC(N)=O)C3=C(C(=O)C(C)=C(N)C3=O)N1CC1C2N1C (stereo unspecified)

Ans:
1: > 10 µM; 2: > 10 µM; 3: > 10 µM; 4: ≤ 0.0781 µM; 5: 5 µM; 6: > 10 µM; 7: > 10 µM; 8: > 10 µM

Below is a list of compounds. For each, state its recorded MIC.
1. COC(=O)C1(F)C(=O)NC(=O)NC1OC (stereo unspecified)
2. O=C(/C=C/c1cccnc1)c1ccccc1O

Ans:
> 10 µM
> 10 µM

Below is a list of compounds. For each, state its recorded MIC.
1. Cc1ccnc(NC(c2ccccc2)c2ccc3cccnc3c2O)c1 (stereo unspecified)
2. COC1C(OC(=O)c2ccc(C)[nH]2)C(O)C(Oc2ccc3c(O)c(NC(=O)c4ccc(O)c(CC=C(C)C)c4)c(=O)oc3c2Cl)OC1(C)C (stereo unspecified)
3. O=C(O)C(=O)Nc1nc[nH]n1
4. O=C(c1cccnc1)C1Cc2ccccc2C1=O (stereo unspecified)

Ans:
["> 10 µM", "> 10 µM", "> 10 µM", "> 10 µM"]

Below is a list of compounds. For each, state its recorded MIC.
1. CCCCOc1ccc(/N=N\c2ccc(N)nc2N)cn1
2. O=[N+]([O-])c1oc2ccc3ccccc3c2c1CCO
3. Cc1c(N2CCCC2)cc2c(c1NC(=O)c1ccccc1Cl)C(C)(C)CC2(C)C
4. Cn1ccc(=Nc2ccc(NC(=O)c3ccc(/N=c4\ccn(C)c5ccc([N+](=O)[O-])cc45)cc3)cc2)cc1
5. OC(c1cc(-c2ccc(Cl)cc2)nc2ccccc12)C1CCCCN1 (stereo unspecified)
6. Nc1ccc(Cn2ccc3c4c(N)nc(N)nc4ccc32)cc1
7. Sc1ncnc2c1ncn2C1CCCO1 (stereo unspecified)

Ans:
["> 10 µM", "> 10 µM", "> 10 µM", "> 10 µM", "> 10 µM", "> 10 µM", "> 10 µM"]

Below is a list of compounds. For each, state its recorded MIC.
1. NC1(N2SC(S)=C3CCCC=C32)CCCCC1
2. Oc1ccc2ccccc2c1/N=N/c1nccs1
3. N=C(Nc1nc(-c2ccccn2)cc2ccccc12)c1ccccn1
4. Cc1cc2cc3c(O)nc(O)nc3nc2cc1C

Ans:
1. > 10 µM
2. 10 µM
3. 5 µM
4. > 10 µM
